# Test system: HEK293T
# MEASUREMENT_PROTOCOL: plasma membrane surface immunostaining intensity (anti-HA, deep receptor scanning) (arbitrary fluorescence units); higher = higher plasma membrane expression
# ASSAY_SETUP: GPCR class: A
OBSERVATION_TYPE: plasma membrane surface immunostaining intensity

{"columns": ["MACROMOLECULE_SEQUENCE", "RECORDED_MEASUREMENT"],
 "data": [
  ["MADAQNISLDSPGSVGAVAVPVVFALIFLLGTVGNGLVLAVLLQPGPSAWQEPGSTTDLFILNLAVADLCFILCCVPFQATIYTLDAWLFGALVCKAVHLLIYLTMYASSFTLAAVSVDRYLAVRHPLRSRALRTPRNARAAVGLVWLLAALFSAPYLSYYGTVRYGALELCVPAWEDARRRALDVATFAAGYLLPVAVVSLAYGRTLRFLWAAVGPAGAAAAEARRRATGRAGRAMLAVAALYALCWGPHHALILCFWYGRFAFSPATYACRLASHCLAYANSCLNPLVYALASRHFRARFRRLWPCGRRRRHRARRALRRVRPASSGPPGCPGDARPSGRLLAGGGQGPEPREGPVHGGEAARGPE [GALR3]", 2680],
  ["MWPNGSSLGPCFRPTNITLEERRLIASPWFAASFCVVGLASNLLALSVLAGARQGGSHTRSSFLTFLCGLVLTDFLGLLVTGTIVVSQHAALFEWHAVDPGCRLCRFMGVVMIFFGLSPLLLGAAMASERYLGITRPFSRPAVASQRRAWATVGLVWAAALALGLLPLLGVGRYTVQYPGSWCFLTLGAESGDVAFGLLFSMLGGLSVGLSFLLNTVSVATLCHVYHGQEAAQQRPRDSEVEMMAQLLGIMVVASVCWLPLLVFIAQTVLRNPPAMSPAGQLSRTTEKELLIYLRVATWNQILDPWVYILFRRAVLRRLQPRLSTRPRSLSLQPQLTQRSGLQ [TBXA2R]", 6470],
  ["MASSWPPLELQSSNQSQLFPQNATACDNAPEAWDLLHRVLPTFIISICFFGLLGNLFVLLVFLLPRRQLNVAEIYLANLAASDLVFVLGLPFWAENIWNQFNWPFGALLCRVINGVIKANLFISIFLVVAISQDRYRVLVHPMASRRQQRRRQARVTCVLIWVVGGLLSIPTFLLRSIQAVPDLNITACILLLPHEAWHFARIVELNILGFLLPLAAIVFFNYHILASLRTREEVSRTRCGGRKDSKTTALILTLVVAFLVCWAPYHFFAFLEFLFQVQAVRGCFWEDFIDLGLQLANFFAFTNSSLNPVIYVFVGRLFRTKVWELYKQCTPKSLAPISSSHRKEIFQLFWRN [BDKRB1]", 976],
  ["MTPTDFTSPIPNMADDYGSESTSSMEDYVNFNFTDFYCEKNNVRQFASHFLPPLYWLVFIVGALGNSLVILVYWYCTRVKTMTDMFLLNLAIADLLFLVTLPFWAIAAADQWKFQTFMCKVVNSMYKMNFYSCVLLIMCISVDRYIAIAQAMRAHTWREKRLLYSKMVCFTIWVLAAALCIPEILYSQIKEESGIAICTMVYPSDESTKLKSAVLTLKVILGFFLPFVVMACCYTIIIHTLIQAKKSSKHKALKVTITVLTVFVLSQFPYNCILLVQTIDAYAMFISNCAVSTNIDICFQVTQTIAFFHSCLNPVLYVFVGERFRRDLVKTLKNLGCISQAQWVSFTRREGSLKLSSMLLETTSGALSL [CCR9]", 4060]
]}

---

# Test system: HEK293T
# MEASUREMENT_PROTOCOL: plasma membrane surface immunostaining intensity (anti-HA, deep receptor scanning) (arbitrary fluorescence units); higher = higher plasma membrane expression
# ASSAY_SETUP: GPCR class: A
OBSERVATION_TYPE: plasma membrane surface immunostaining intensity

{"columns": ["MACROMOLECULE_SEQUENCE", "RECORDED_MEASUREMENT"],
 "data": [
  ["MESSGNPESTTFFYYDLQSQPCENQAWVFATLATTVLYCLVFLLSLVGNSLVLWVLVKYESLESLTNIFILNLCLSDLVFACLLPVWISPYHWGWVLGDFLCKLLNMIFSISLYSSIFFLTIMTIHRYLSVVSPLSTLRVPTLRCRVLVTMAVWVASILSSILDTIFHKVLSSGCDYSELTWYLTSVYQHNLFFLLSLGIILFCYVEILRTLFRSRSKRRHRTVKLIFAIVVAYFLSWGPYNFTLFLQTLFRTQIIRSCEAKQQLEYALLICRNLAFSHCCFNPVLYVFVGVKFRTHLKHVLRQFWFCRLQAPSPASIPHSPGAFAYEGASFY [XCR1]", 190],
  ["MCPMLLKNGYNGNATPVTTTAPWASLGLSAKTCNNVSFEESRIVLVVVYSAVCTLGVPANCLTAWLALLQVLQGNVLAVYLLCLALCELLYTGTLPLWVIYIRNQHRWTLGLLACKVTAYIFFCNIYVSILFLCCISCDRFVAVVYALESRGRRRRRTAILISACIFILVGIVHYPVFQTEDKETCFDMLQMDSRIAGYYYARFTVGFAIPLSIIAFTNHRIFRSIKQSMGLSAAQKAKVKHSAIAVVVIFLVCFAPYHLVLLVKAAAFSYYRGDRNAMCGLEERLYTASVVFLCLSTVNGVADPIIYVLATDHSRQEVSRIHKGWKEWSMKTDVTRLTHSRDTEELQSPVALADHYTFSRPVHPPGSPCPAKRLIEESC [GPR132]", 372]
]}

---

# Tested on: HEK293T
# MEASUREMENT_PROTOCOL: plasma membrane surface immunostaining intensity (anti-HA, deep receptor scanning) (arbitrary fluorescence units); higher = higher plasma membrane expression
# ASSAY_SETUP: GPCR class: A (Olfactory)
Reported plasma membrane surface immunostaining intensity is given for each of the following sequences.
OBSERVATION_TYPE: plasma membrane surface immunostaining intensity

{"columns": ["MACROMOLECULE_SEQUENCE", "RECORDED_MEASUREMENT"],
 "data": [
  ["MVWENQTFNSIFILLGIFNHSPTHTFLFSLVLGIFSLALMENISMVLLIYIEKQLHTPMYFLLSQLSLMDLMLICTTLPKMIFSYLSGKKSISLAGCGTQIFFYVSLLGAECFLLAVMAYDRYVAICHPLQYTILMNPKLCVFMTVASWTLGSLDGIIVLAAVLSFSYCSSLEIHHFFCDVAALLPLSCTETSAFERLLVICCVVMLIFPVSVIILSYSHVLRAVIHMGSGESRRKAFTTCSSHLSVVGLYYGAAMFMYMRPASKHTPDQDKMVSAFYTILTPMLNPLIYSLRNKEVFRALQKVLKKRKLI [OR2M4]", 172],
  ["MSGDNSSSLTPGFFILNGVPGLEATHIWISLPFCFMYIIAVVGNCGLICLISHEEALHRPMYYFLALLSFTDVTLCTTMVPNMLCIFWFNLKEIDFNACLAQMFFVHMLTGMESGVLMLMALDRYVAICYPLRYATILTNPVIAKAGLATFLRNVMLIIPFTLLTKRLPYCRGNFIPHTYCDHMSVAKVSCGNFKVNAIYGLMVALLIGVFDICCISVSYTMILQAVMSLSSADARHKAFSTCTSHMCSIVITYVAAFFTFFTHRFVGHNIPNHIHIIVANLYLLLPPTMNPIVYGVKTKQIQEGVIKFLLGDKVSFTYDK [OR52N2]", 157],
  ["MLNTTSVTEFLLLGVTDIQELQPFLFVVFLTIYFISVTGNGAVLMIVISDPRLHSLMYFFLGNLSYLDICYSTVTLPKMLQNFLSTHKAISFLGCISQLHFFHSLGSTESMLFAVMAFDLSVAICKPLRYTVIMNPQLCTQMAITIWVIGFFHALLHSVMTSRLNFCGSNRIHHFLCDIKPLLKLACGNTELNQWLLSTVTGTIAMGPFFLTLLSYFYIITYLFFKTRSCSMLCKALSTCASHFMVVILFYAPVLFTYIHPALESFMDQDRIVAIMYTVVTPVLNPLIYTLRNKEVKGALGRVIRRL [OR12D2]", 126]
]}

---

# Test system: HEK293T
# MEASUREMENT_PROTOCOL: plasma membrane surface immunostaining intensity (anti-HA, deep receptor scanning) (arbitrary fluorescence units); higher = higher plasma membrane expression
# ASSAY_SETUP: GPCR class: A (Olfactory)
plasma membrane surface immunostaining intensity below 200 gives no (0); plasma membrane surface immunostaining intensity at or above it gives yes (1).

{"columns": ["MACROMOLECULE_SEQUENCE", "LABEL_VALUE"],
 "data": [
  ["MEIVSTGNETITEFVLLGFYDIPELHFLFFIVFTAVYVFIIIGNMLIIVAVVSSQRLHKPMYIFLANLSFLDILYTSAVMPKMLEGFLQEATISVAGCLLQFFIFGSLATAECLLLAVMAYDRYLAICYPLHYPLLMGPRRYMGLVVTTWLSGFVVDGLVVALVAQLRFCGPNHIDQFYCDFMLFVGLACSDPRVAQVTTLILSVFCLTIPFGLILTSYARIVVAVLRVPAGASRRRAFSTCSSHLAVVTTFYGTLMIFYVAPSAVHSQLLSKVFSLLYTVVTPLFNPVIYTMRNKEVHQALRKILCIKQTETLD [OR11A1]", "yes (1)"],
  ["MNDDGKVNASSEGYFILVGFSNWPHLEVVIFVVVLIFYLMTLIGNLFIIILSYLDSHLHTPMYFFLSNLSFLDLCYTTSSIPQLLVNLWGPEKTISYAGCMIQLYFVLALGTTECVLLVVMSYDRYAAVCRPLHYTVLMHPRFCHLLAVASWVSGFTNSALHSSFTFWVPLCGHRQVDHFFCEVPALLRLSCVDTHVNELTLMITSSIFVLIPLILILTSYGAIVRAVLRMQSTTGLQKVFGTCGAHLMAVSLFFIPAMCIYLQPPSGNSQDQGKFIALFYTVVTPSLNPLIYTLRNKVVRGAVKRLMGWE [OR2J3]", "no (0)"],
  ["MVLASGNSSSHPVSFILLGIPGLESFQLWIAFPFCATYAVAVVGNITLLHVIRIDHTLHEPMYLFLAMLAITDLVLSSSTQPKMLAIFWFHAHEIQYHACLIQVFFIHAFSSVESGVLMAMALDCYVAICFPLRHSSILTPSVVIKLGTIVMLRGLLWVSPFCFMVSRMPFCQHQAIPQSYCEHMAVLKLVCADTSISRGNGLFVAFSVAGFDMIVIGMSYVMILRAVLQLPSGEARLKAFSTRSSHICVILALYIPALFSFLTYRFGHDVPRVVHILFANLYLLIPPMLNPIIYGVRTKQIGDRVIQGCCGNIP [OR52R1]", "no (0)"],
  ["MEPEKQTEISEFFLQGLSEKPEHQTLLFTMFLSTYLVTIIGNALIILAIITDSHLHTPMYFFLFNLSLVDTLLSSTTVPKMLANIQAQSRAIPFVGCLTQMYAFHLFGTMDSFLLAVMAIDRFVAIVHPQRYLVLMCSPVCGLLLGASWMITNLQSLIHTCLMAQLTFCAGSEISHFFCDLMPLLKLSGSDTHTNELVIFAFGIVVGTSPFSCILLSYIRIFWTVFKIPSTRGKWKAFSTCGLHLTVVSLSYGTIFAVYLQPTSPSSSQKDKAAALMCGVFIPMLNPFIYSIRNKDMKAALGKLIGKVAVPCPRPEQLLDVYHVPGSLLAARDTEMHPIPYPGGVQSLAGNRDME [OR1I1]", "no (0)"],
  ["MGMEGLLQNSTNFVLTGLITHPAFPGLLFAIVFSIFVVAITANLVMILLIHMDSRLHTPMYFLLSQLSIMDTIYICITVPKMLQDLLSKDKTISFLGCAVQIFLYLTLIGGEFFLLGLMAYDRYVAVCNPLRYPLLMNRRVCLFMVVGSWVGGSLDGFMLTPVTMSFPFCRSREINHFFCEIPAVLKLSCTDTSLYETLMYACCVLMLLIPLSVISVSYTHILLTVHRMNSAEGRRKAFATCSSHIMVVSVFYGAAFYTNVLPHSYHTPEKDKVVSAFYTILTPMLNPLIYSLRNKDVAAALRKVLGRCGSSQSIRVATVIRKG [OR2T2]", "no (0)"],
  ["MAERNYTVVTEFFLTAFTEHLQWRVPLFLIFLSFYLATMLGNTGMILLIRGDRRLHTPMYFFLSHLSLVDICYSSAIIPQMLAVLWEHGTTISQARCAAQFFLFTFFASIDCYLLAIMAYDRYTAVCQPLLYVTIITEKARWGLVTGAYVAGFFSAFVRTVTAFTLSFCGNNEINFIFCDLPPLLKLSCGDSYTQEVVIIVFALFVMPACILVILVSYLFIIVAILQIHSAGGRAKTFSTCASHLTAVALFFGTLIFMYLRDNTGQSSEGDRVVSVLYTVVTPMLNPLIYSLRNKEVKEATRKALSKSKPARRP [OR9Q2]", "no (0)"],
  ["MGKENCTTVAEFILLGLSDVPELRVCLFLLFLLIYGVTLLANLGMTALIQVSSRLHTPVYFFLSHLSFVDFCYSSIIVPKMLANIFNKDKAISFLGCMVQFYLFCTCGVTEVFLLAVMAYDRFVAICNPLLYMVTMSQKLRVELTSCCYFCGTVCSLIHSSLALRILFYRSNVINHFFCDLPPLLSLACSDVTVNETLLFLVATLNESVTIMIILTSYLLILTTILKIHSAESRHKAFSTCASHLTAITVSHGTILYIYCRPSSGNSGDVDKVATVFYTVVIPMLNPLIYSLRNKDVNKALRKVMGSKIHS [OR5L2]", "no (0)"],
  ["MSYFYRLKLMKEAVLVKLPFTSLPLLLQTLSRKSRDMEIKNYSSSTSGFILLGLSSNPQLQKPLFAIFLIMYLLAAVGNVLIIPAIYSDPRLHTPMYFFLSNLSFMDICFTTVIVPKMLVNFLSETKVISYVGCLAQMYFFMAFGNTDSYLLASMAIDRLVAICNPLHYDVVMKPRHCLLMLLGSCSISHLHSLFRVLLMSRLSFCASHIIKHFFCDTQPVLKLSCSDTSSSQMVVMTETLAVIVTPFLCIIFSYLRIMVTVLRIPSAAGKWKAFSTCGSHLTAVALFYGSIIYVYFRPLSMYSVVRDRVATVMYTVVTPMLNPFIYSLRNKDMKRGLKKLQDRIYR [OR1L6]", "yes (1)"],
  ["MENGSYTSYFILLGLFNHTRAHQVLFMMVLSIVLTSLFGNSLMILLIHWDHRLHTPMYFLLSQLSLMDVMLVSTTVPKMAADYLTGSKAISRAGCGAQIFFLPTLGGGECFLLAAMAYDRYAAVCHPLRYPTLMSWQLCLRMNLSCWLLGAADGLLQAVATLSFPYCGAHEIDHFFCETPVLVRLACADTSVFENAMYICCVLMLLVPFSLILSSYGLILAAVLHMRSTEARKKAFATCSSHVAVVGLFYGAAIFTYMRPKSHRSTNHDKVVSAFYTMFTPLLNPLIYSVKNSEVKGALTRCMGRCVALSRE [OR2T8]", "no (0)"]
]}
